Values from the supplement of paper PMC7877785

# experiment description: self-splicing fitness, log relative to wild type (ln ratio); higher = more splicing; Tetrahymena group I intron in knt gene, E. coli kanamycin selection, DiMSum; sequences stand for … in CUCUCU…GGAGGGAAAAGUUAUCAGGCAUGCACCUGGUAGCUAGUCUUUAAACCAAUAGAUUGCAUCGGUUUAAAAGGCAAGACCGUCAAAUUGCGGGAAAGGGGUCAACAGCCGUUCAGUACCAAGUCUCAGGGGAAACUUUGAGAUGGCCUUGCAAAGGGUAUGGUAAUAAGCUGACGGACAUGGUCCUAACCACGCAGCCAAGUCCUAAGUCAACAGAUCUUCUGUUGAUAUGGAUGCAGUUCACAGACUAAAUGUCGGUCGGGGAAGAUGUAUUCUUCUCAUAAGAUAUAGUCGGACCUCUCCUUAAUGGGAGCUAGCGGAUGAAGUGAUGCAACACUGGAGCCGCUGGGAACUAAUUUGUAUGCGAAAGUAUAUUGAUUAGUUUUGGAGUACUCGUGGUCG;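 also: selection with 25 µg/mL kanamycin versus none on LB agar overnight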
# experimental context: 37 °C
Kindly supply the reported self-splicing fitness (ln) values for the records listed here.
One number for each entry.

The following sequences have reported results that may help.
polymer sequence	self-splicing fitness (ln)
CUAAAGCAAUAUUACGACAA	-1.2
GCCCAGCAAUAUUACGGGGC	-2.73
UGAAAGCAAUAUUACGCGUA	-0.174
GUGGAGCAAUAUUACGAGAG	-2.7
CAAGAGCAAUAUUACGCAGG	-2

Take each entry in turn and give its self-splicing fitness (ln).
1. UUACAGCAAUAUUACGAGAC
2. GACGAGCAAUAUUACGCGGG
3. UAUGAGCAAUAUUACGCCUG
4. AGUAAGCAAUAUUACGUACG
5. GUGGAGCAAUAUUACGAUAU
6. CUCAAGCAAUAUUACGAGAG

1: -2.18; 2: -2.61; 3: -1.57; 4: 0.135; 5: -0.975; 6: -1.81

Take each entry in turn and give its self-splicing fitness (ln).
1. CAUCAGCAAUAUUACGGGAU
2. UAAUAGCAAUAUUACGUAAA
3. GAGUAGCAAUAUUACGUACA

[-1.88, -1.88, -0.303]

Take each entry in turn and give its self-splicing fitness (ln).
1. UGGCAGCAAUAUUACGUCGG
2. CCUGAGCAAUAUUACGCGGG

1. -0.268
2. -2.22
